- Tested on: Staphylococcus aureus
- Measurement description: Antibacterial activity against Staphylococcus aureus by cup-plate method
- Format: functional
Readout label: inhibition zone (IZ) (mm)
Only the number, expressed in mm, is required.

CC(=O)Nc1ccc(S(=O)(=O)N2CCN(CCCC3C(=O)NCCN=C3C)CC2)cc1 (stereo unspecified); 16
CC(=O)Nc1ccc(S(=O)(=O)N2CCN(CCCC3C(c4ccccc4)=NCCN=C3c3ccccc3)CC2)cc1; 17
O=C(O)c1cn(C2CC2)c2cc(N3CCNCC3)c(F)cc2c1=O; 24
CC(=O)Nc1ccc(S(=O)(=O)N2CCN(CCCC3C(=O)NCCNC3=O)CC2)cc1; 13
CC(=O)Nc1ccc(S(=O)(=O)N2CCN(CCCC3C(C)=NCCN=C3C)CC2)cc1; 19

Continue with the next compound.
Bench note: what inhibition zone (IZ) did CC(=O)Nc1ccc(S(=O)(=O)N2CCN(CCCC3C(C)=NCCN=C3c3ccccc3)CC2)cc1 (stereo unspecified) show?
20
